Attribute: pIC50
System: MOLT-4 cells
Assay: MTT cytotoxicity assay, MOLT-4
Format: cell-based
Conditions: Homo sapiens, 48 h, mean ± SD
Method: Human umbilical vein endothelial cells (purchased from Life Technologies, Carlsbad, CA, USA) were cultured according to the manufacturer’s instructions in Medium 200 supplemented with Low Serum Growth Supplement. 1 × 10^4 cells were seeded on each well on a 96-well plate (Nunc, Roskilde, Denmark). […] The cytotoxicity of all compounds was determined by the MTT (3-(4,5-dimethylthiazol-2-yl)-2,5-diphenyltetrazolium bromide) assay (Sigma, St. Louis, MO, USA). […]
Scale note: pIC50 = -log10(concentration in M).

Known results for compounds:
compound: CCN(CC)CCN1C(=O)C2C(C1=O)C1(CC)C(=O)C2(CC)C(c2ccccc2)=C1c1ccccc1 (stereo not shown)
measured.result: 4.52
--
compound: CCC12C(=O)C(CC)(C(c3ccccc3)=C1c1ccccc1)C1C(=O)N(C3CCC(=O)NC3=O)C(=O)C12 (stereo not shown)
measured.result: 4.74
--
compound: CCC12C(=O)C(CC)(C(c3ccccc3)=C1c1ccccc1)C1C(=O)N(CCN3CCCCC3)C(=O)C12 (stereo not shown)
measured.result: 5.05
--
compound: O=C(CCCCC1SCC2NC(=O)NC21)NCC(O)CN1C(=O)C2C(C1=O)C1(c3ccccc3)CC2(c2ccccc2)C(c2ccccc2)=C1c1ccccc1 (stereo not shown)
measured.result: 5.82
--
compound: NCC(O)CN1C(=O)C2C(C1=O)C1(c3ccccc3)CC2(c2ccccc2)C(c2ccccc2)=C1c1ccccc1 (stereo not shown)
measured.result: 5.30

# input for lookup
Recorded pIC50 for CCC12C(=O)C(CC)(C(c3ccccc3)=C1c1ccccc1)C1C(=O)N(CCCN(C)C)C(=O)C12 (stereo not shown) with MOLT-4 cells, please?
4.52
